- tested system: Adenosylhomocysteinase (Homo sapiens)
- Sequence (P23526 whole entry): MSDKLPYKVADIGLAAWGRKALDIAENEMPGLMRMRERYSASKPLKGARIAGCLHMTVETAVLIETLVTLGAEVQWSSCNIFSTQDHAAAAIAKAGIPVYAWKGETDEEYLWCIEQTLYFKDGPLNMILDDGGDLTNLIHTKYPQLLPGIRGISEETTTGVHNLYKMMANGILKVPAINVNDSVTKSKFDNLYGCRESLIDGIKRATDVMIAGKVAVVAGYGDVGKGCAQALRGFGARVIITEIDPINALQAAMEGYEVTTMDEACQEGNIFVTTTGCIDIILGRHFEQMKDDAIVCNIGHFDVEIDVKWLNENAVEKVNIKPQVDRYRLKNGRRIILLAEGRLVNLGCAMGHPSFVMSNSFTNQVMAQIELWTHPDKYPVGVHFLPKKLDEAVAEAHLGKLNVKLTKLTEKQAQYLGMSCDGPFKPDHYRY
# IC50 listing for each entry below

• CNc1ncnc2c1ncn2[C@H]1[C@H](O)[C@H](O)[C@@H](CO)C1(F)F = 0.76 µM
• O=c1ccn([C@H]2[C@H](O)[C@H](O)[C@@H](CO)[C@@H]2F)c(=O)[nH]1 = > 100 µM

# get_value(readout= IC50, system= Adenosylhomocysteinase (Homo sapiens)) for Nc1ccn([C@H]2[C@H](O)[C@H](O)[C@@H](CO)[C@H]2F)c(=O)n1
> 100 µM

Give Adenosylhomocysteinase (Homo sapiens) IC50 for CC(C)OC(=O)[C@H](C)N[P@](=O)(OC[C@@H]1[C@@H](O)[C@@H](O)[C@H](n2cnc3c(N)ncnc32)C1(F)F)Oc1ccccc1
> 100 µM

----------
Quick record of IC50 values for UniProt:P23526.

Some entries whose results are on file:
• CC(C)OC(=O)[C@H](C)N[P@](=O)(OC[C@@H]1[C@@H](O)[C@@H](O)[C@H](n2ccc(=O)[nH]c2=O)C1(F)F)Oc1ccccc1 = > 100 µM
• CNc1ncnc2c1ncn2[C@H]1[C@H](O)[C@H](O)[C@@H](CO)[C@H]1F = 4.39 µM
• Nc1ccn([C@H]2[C@H](O)[C@H](O)[C@@H](CO)C2(F)F)c(=O)n1 = > 100 µM
• O=c1ccn([C@H]2[C@H](O)[C@H](O)[C@@H](CO)C2(F)F)c(=O)[nH]1 = > 100 µM
• Nc1ncnc2c1ncn2[C@H]1[C@H](O)[C@H](O)[C@@H](CO)C1(F)F = 1.06 µM
• CC(C)OC(=O)[C@H](C)N[P@](=O)(OC[C@@H]1[C@@H](O)[C@@H](O)[C@H](n2ccc(=O)[nH]c2=O)[C@@H]1F)Oc1ccccc1 = > 100 µM

Read the next record carefully.
Given the entry O=c1ccn([C@H]2[C@H](O)[C@H](O)[C@@H](CO)[C@H]2F)c(=O)[nH]1 , what IC50 was observed with UniProt:P23526?
> 100 µM

----------
- test details: Selectivity index, ratio of CC50 for African green monkey Vero cells to EC50 for inhibition of RNA-dependent RNA polymerase in MERS-CoV EMC/2012 infected in African green monkey Vero cells assessed as reduction in virus-induced cytopathic effect
- Type: toxicity
- condition description: read-out: Ratio CC50/EC50
metric name: selectivity ratio

Look up selectivity ratio for this molecule: Nc1ncnc2c1ncn2[C@H]1[C@H](O)[C@H](O)[C@@H](CO)C1(F)F
16

----------
- test details: Selectivity index, ratio of CC50 for African green monkey Vero cells to EC50 for inhibition of RNA-dependent RNA polymerase in ZIKV SL0612 infected in African green monkey Vero cells assessed as reduction in virus-induced cytopathic effect
- Format: toxicity
- condition description: read-out: Ratio CC50/EC50
We begin with a simple list: items and their reported selectivity ratio.

Using the record for CC(C)OC(=O)[C@H](C)N[P@](=O)(OC[C@@H]1[C@@H](O)[C@@H](O)[C@H](n2cnc3c(N)ncnc32)C1(F)F)Oc1ccccc1 , report its selectivity ratio.
> 14.3

Name the reported selectivity ratio value associated with the compound Nc1ncnc2c1ncn2[C@H]1[C@H](O)[C@H](O)[C@@H](CO)C1(F)F
> 9.6

----------
- Test system: Vero C1008
- test details: Cytotoxicity against African green monkey Vero E6 cells assessed as reduction in cell viability measured after 72 hrs by MTS assay
- Format: cell-based
- condition description: chlorocebus sabaeus, vero c1008, 72 h
metric name: CC50

Consider the following illustrative entries.
* CNc1ncnc2c1ncn2[C@H]1[C@H](O)[C@H](O)[C@@H](CO)[C@H]1F | > 100 µM
* O=c1ccn([C@H]2[C@H](O)[C@H](O)[C@@H](CO)[C@H]2F)c(=O)[nH]1 | > 100 µM
* Nc1ccn([C@H]2[C@H](O)[C@H](O)[C@@H](CO)[C@H]2F)c(=O)n1 | > 100 µM

Moving on to the next compound.
Give CC50 (Vero C1008) of the following compound: Nc1ccn([C@H]2[C@H](O)[C@H](O)[C@@H](CO)C2(F)F)c(=O)n1
> 100 µM

----------
Listed here: items and their measured CC50.
- System: Vero
- test details: Cytotoxicity against African green monkey Vero cells assessed as reduction in cell viability measured after 72 hrs by MTS assay
- Format: cell-based
- condition description: chlorocebus sabaeus
Entry rule: numbers only, all in µM.

• Nc1ncnc2c1ncn2[C@H]1[C@H](O)[C@H](O)[C@@H](CO)C1(F)F = 3.2

# input for lookup
Fill in the blank: the reported CC50 of Nc1ncnc2c1ncn2[C@@H]1C[C@H](CO)[C@@H](O)[C@H]1O is ____.
2

----------
- System: Vero
- test details: Cytotoxicity against African green monkey Vero cells assessed as reduction in cell viability measured after 96 hrs by MTS assay
- Assay type: cell-based
- condition description: chlorocebus sabaeus
Recorded CC50 for the following molecules

Solved entries (count: 10):
• Nc1ccn([C@H]2[C@H](O)[C@H](O)[C@@H](CO)C2(F)F)c(=O)n1 = > 100 µM
• Nc1ccn([C@H]2[C@H](O)[C@H](O)[C@@H](CO)[C@H]2F)c(=O)n1 = > 100 µM
• Nc1ncnc2c1ncn2[C@H]1[C@H](O)[C@H](O)[C@@H](CO)C1(F)F = > 2.5 µM
• CC(C)OC(=O)[C@H](C)N[P@](=O)(OC[C@@H]1[C@@H](O)[C@@H](O)[C@H](n2ccc(=O)[nH]c2=O)C1(F)F)Oc1ccccc1 = > 100 µM
• CC(C)OC(=O)[C@H](C)N[P@](=O)(OC[C@@H]1[C@@H](O)[C@@H](O)[C@H](n2ccc(=O)[nH]c2=O)[C@@H]1F)Oc1ccccc1 = > 100 µM
• O=c1ccn([C@H]2[C@H](O)[C@H](O)[C@@H](CO)[C@@H]2F)c(=O)[nH]1 = > 100 µM
• CC(C)OC(=O)[C@H](C)N[P@](=O)(OC[C@@H]1[C@@H](O)[C@@H](O)[C@H](n2cnc3c(N)ncnc32)C1(F)F)Oc1ccccc1 = > 25 µM
• Nc1ncnc2c1ncn2[C@@H]1C[C@H](CO)[C@@H](O)[C@H]1O = 2.4 µM
• O=c1ccn([C@H]2[C@H](O)[C@H](O)[C@@H](CO)C2(F)F)c(=O)[nH]1 = > 100 µM
• CNc1ncnc2c1ncn2[C@H]1[C@H](O)[C@H](O)[C@@H](CO)C1(F)F = > 100 µM

Now let's try a different one.
Give its CC50 value. Item: CNc1ncnc2c1ncn2[C@H]1[C@H](O)[C@H](O)[C@@H](CO)[C@H]1F
> 100 µM
